Provenance of the data: patent US11225491B2

# Run Description: Cytotoxicity in mock-infected MT-4 cells, MTT method
# Cond: human

Molecule	CC50 at 5 days
Cc1ccnc2c1NC(=O)c1cccnc1N2C1CC1 [NVP, Nevirapine, reference compound]	> 9.51 µM

----------
# Run Description: in vitro
# Cond: human

Molecule	CC50 at 5 days
Cc1cc(C#N)cc(C)c1Oc1nc(NC2CCN(Cc3ccncc3)CC2)nc2scnc12 [TZ4]	28.7 µM
Cc1cc(C#N)cc(C)c1Oc1nc(NC2CCN(Cc3ccc(S(C)(=O)=O)cc3)CC2)nc2scnc12 [TZ3]	14.3 µM
Cc1cc(C#N)cc(C)c1Oc1nc(NC2CCN(Cc3ccc(C(N)=O)cc3)CC2)nc2scnc12 [TZ2]	27.1 µM
Cc1cc(C#N)cc(C)c1Oc1nc(NC2CCN(Cc3cccc(C(N)=O)c3)CC2)nc2scnc12 [TZ6]	28.8 µM
Cc1cc(C#N)cc(C)c1Oc1nc(NC2CCN(Cc3ccc(C(N)=O)cc3)CC2)nc2ncsc12 [SZ5]	15.5 µM
Cc1cc(C#N)cc(C)c1Oc1nc(NC2CCN(Cc3ccc(S(=O)(=O)NC4CC4)cc3)CC2)nc2ncsc12 [SZ3]	23.2 µM
Cc1cc(C#N)cc(C)c1Oc1nc(NC2CCN(Cc3ccc(S(N)(=O)=O)cc3)CC2)nc2scnc12 [TZ1]	23.2 µM
Cc1cc(C#N)cc(C)c1Oc1nc(NC2CCN(Cc3ccc([N+](=O)[O-])cc3)CC2)nc2scnc12 [TZ5]	5.68 µM
Cc1cc(C#N)cc(C)c1Oc1nc(NC2CCN(Cc3ccc(S(C)(=O)=O)cc3)CC2)nc2ncsc12 [SZ6]	10.9 µM
Cc1cc(C#N)cc(C)c1Oc1nc(NC2CCN(Cc3ccc(S(=O)(=O)N4CCOCC4)cc3)CC2)nc2ncsc12 [SZ4]	17.6 µM
Cc1cc(C#N)cc(C)c1Oc1nc(NC2CCN(Cc3cccc(C(N)=O)c3)CC2)nc2ncsc12 [SZ9]	27.3 µM
Cc1cc(C#N)cc(C)c1Oc1nc(NC2CCN(Cc3ccc([N+](=O)[O-])cc3)CC2)nc2ncsc12 [SZ8]	5.17 µM
Cc1cc(C#N)cc(C)c1Oc1nc(NC2CCN(Cc3ccc(S(N)(=O)=O)cc3)CC2)nc2ncsc12 [SZ1]	25.1 µM
Cc1cc(C#N)cc(C)c1Oc1nc(NC2CCN(Cc3ccncc3)CC2)nc2ncsc12 [SZ7]	30.3 µM
CNS(=O)(=O)c1ccc(CN2CCC(Nc3nc(Oc4c(C)cc(C#N)cc4C)c4scnc4n3)CC2)cc1 [SZ2]	13.7 µM
Cc1cc(C#N)cc(C)c1Oc1nc(Nc2ccc(C#N)cc2)nc(N)c1Br [ETR, Etravirine, reference compound]	> 4.59 µM
